test: solvent given as SMILES; details: in CS(C)=O
Would you kindly list emission maximum for each of these compounds?
State just the number; it will be interpreted in nm.

Data request, read-out emission maximum, for C/C(=N\Nc1ccc(C#N)cc1)c1ccccn1 475

Need emission maximum, item c1ccc2c(-c3nc4sc5ccccc5c4s3)cccc2c1 447

// emission maximum lookup, key: CCC1=C(C)C(=O)n2c1cc1c(C)c(CCC(=O)OC)c(C)n1c2=O 505

Would you mind telling me what emission maximum value was observed for CCC1(CC)c2cc(C=C(C#N)C#N)ccc2-c2ccc(N(C)C)cc21 ? 711

I have this compound here, COc1ccc(-c2csc(-c3ccncc3)n2)cc1 , and I need its recorded emission maximum. 455

Using the record for CN(c1ccccc1)c1ccc(/C=C2\C(=O)c3ccccc3S2(=O)=O)cc1 , report its emission maximum. 552

Looking for the measured emission maximum of O=c1c(Nc2ccccc2)c([O-])c1=[NH+]c1ccccc1 , can you help? 504

Item CC(=O)c1ccc(-c2nc3ccc(N(C)C)cc3s2)cc1 has what recorded emission maximum? 587.85

Please look up its emission maximum: CCC1=C(C)C2=Cc3cscc3B(O)N2C1=O 425

Can you share its emission maximum? I mean this compound: Cn1c(=O)c(/N=N/c2cc(S(=O)(=O)O)ccc2S(=O)(=O)O)c(O)c2ccccc21 490

Can you look up the measured emission maximum of CCCCCCn1c2ccccc2c2cc(/C=C/c3cc(=O)oc4cc(C)ccc34)ccc21 for me? 542
